The following compounds are shown together with reported cytotoxicity at 12.5 µmol values.
- Test system: K-562
- Assay Overview: MTT anti-proliferative assay, K-562
- Format: cell-based, human
- Protocol Conditions: Homo sapiens, K562; K-562, 12.5 umol; read-out: Toxicity %
Observable: cytotoxicity at 12.5 µmol

>>> endpoint_result("O=C(Cn1cnc2cc([N+](=O)[O-])ccc2c1=O)Nc1ccc(F)c(Cl)c1")
"91.9%"
>>> endpoint_result("O=C(Cn1cnc2cc(Cl)ccc2c1=O)Nc1ccc(F)c(Cl)c1")
"92.6%"
>>> endpoint_result("O=C(Cn1cnc2cc([N+](=O)[O-])ccc2c1=O)Nc1ccccc1")
"92.2%"
>>> endpoint_result("O=C(Cn1cnc2cc([N+](=O)[O-])ccc2c1=O)Nc1ccc(Cl)cc1")
"92.6%"
>>> endpoint_result("O=C(Cn1cnc2cc(Cl)ccc2c1=O)Nc1ccccc1Cl")
"92.2%"
>>> endpoint_result("O=C(Cn1cnc2cc(Cl)ccc2c1=O)Nc1ccccc1")
"94%"
>>> endpoint_result("O=C(Cn1cnc2cc(Cl)ccc2c1=O)Nc1ccc(Cl)cc1")
"91.7%"
>>> endpoint_result("O=C(Cn1cnc2cc([N+](=O)[O-])ccc2c1=O)Nc1ccccc1Cl")
"93.1%"

###

- Assay Overview: MTT cytotoxicity against normal cells
- Assay type: cell-based, human
- Protocol Conditions: human, HEK-293 cells (normal human embryonic kidney); HEK-293, 2.5 umol/ml
Observable: viability at 3 days, 2.5 umol/ml (%)

>>> endpoint_result("CNC(=O)c1cc(Oc2ccc(NC(=O)Nc3ccc(Cl)c(C(F)(F)F)c3)cc2)ccn1 [Sorafenib, sorafenib, reference compound]")
10.3

###

- Assay Overview: MTT cytotoxicity against normal cells
- Format: cell-based, human
- Protocol Conditions: human, HEK-293 cells (normal human embryonic kidney); HEK-293, 0.781 umol/ml
Observable: viability at 3 days, 0.781 umol/ml (%)

>>> endpoint_result("O=C(Cn1cnc2cc([N+](=O)[O-])ccc2c1=O)Nc1ccccc1Cl")
62.1

###

- Assay Overview: MTT cytotoxicity against normal cells
- Type: cell-based, human
- Protocol Conditions: human, HEK-293 cells (normal human embryonic kidney); HEK-293, 0.078 umol/ml
Observable: viability at 3 days, 0.078 umol/ml (%)

>>> endpoint_result("CNC(=O)c1cc(Oc2ccc(NC(=O)Nc3ccc(Cl)c(C(F)(F)F)c3)cc2)ccn1 [Sorafenib, sorafenib, reference compound]")
69.4

###

The following compounds are shown together with reported viability at 6.25 µmol values.
- Tested on: K-562
- Assay Overview: MTT anti-proliferative assay, K-562
- Assay type: cell-based, human
- Protocol Conditions: Homo sapiens, K562; K-562, 6.25 umol
Observable: viability at 6.25 µmol (%)

>>> endpoint_result("O=C(Cn1cnc2cc(Cl)ccc2c1=O)Nc1ccccc1Cl")
8.54
>>> endpoint_result("O=C(Cn1cnc2cc(Cl)ccc2c1=O)Nc1ccc(F)c(Cl)c1")
8.78
>>> endpoint_result("O=C(Cn1cnc2cc([N+](=O)[O-])ccc2c1=O)Nc1ccc(F)c(Cl)c1")
10.8
>>> endpoint_result("O=C(Cn1cnc2cc([N+](=O)[O-])ccc2c1=O)Nc1ccc(Cl)cc1")
8.29
>>> endpoint_result("O=C(Cn1cnc2cc(Cl)ccc2c1=O)Nc1ccccc1")
7.18
>>> endpoint_result("O=C(Cn1cnc2cc(Cl)ccc2c1=O)Nc1ccc(Cl)cc1")
9.89
>>> endpoint_result("O=C(Cn1cnc2cc([N+](=O)[O-])ccc2c1=O)Nc1ccccc1Cl")
8.5
>>> endpoint_result("O=C(Cn1cnc2cc([N+](=O)[O-])ccc2c1=O)Nc1ccccc1")
8.78

###

- System: MCF-7
- Assay Overview: MTT anti-proliferative assay, MCF-7
- Format: cell-based, human
- Protocol Conditions: Homo sapiens, MCF7; MCF-7, 6.25 umol; read-out: Toxicity %
The following molecules are shown together with reported cytotoxicity at 6.25 µmol values.
Observable: cytotoxicity at 6.25 µmol

>>> endpoint_result("O=C(Cn1cnc2cc(Cl)ccc2c1=O)Nc1ccc(F)c(Cl)c1")
"91%"
>>> endpoint_result("O=C(Cn1cnc2cc(Cl)ccc2c1=O)Nc1ccc(Cl)cc1")
"91.6%"
>>> endpoint_result("O=C(Cn1cnc2cc([N+](=O)[O-])ccc2c1=O)Nc1ccccc1")
"91.3%"
>>> endpoint_result("O=C(Cn1cnc2cc([N+](=O)[O-])ccc2c1=O)Nc1ccc(F)c(Cl)c1")
"90.8%"
>>> endpoint_result("O=C(Cn1cnc2cc([N+](=O)[O-])ccc2c1=O)Nc1ccccc1Cl")
"92%"
>>> endpoint_result("O=C(Cn1cnc2cc(Cl)ccc2c1=O)Nc1ccccc1Cl")
"91.7%"
>>> endpoint_result("O=C(Cn1cnc2cc(Cl)ccc2c1=O)Nc1ccccc1")
"88.6%"
>>> endpoint_result("O=C(Cn1cnc2cc([N+](=O)[O-])ccc2c1=O)Nc1ccc(Cl)cc1")
"88.8%"

###

- Assay Overview: MTT cytotoxicity against normal cells
- Assay type: cell-based, human
- Protocol Conditions: human, HEK-293 cells (normal human embryonic kidney); HEK-293, 50 umol/ml
Observable: viability at 3 days, 50 umol/ml (%)

>>> endpoint_result("CNC(=O)c1cc(Oc2ccc(NC(=O)Nc3ccc(Cl)c(C(F)(F)F)c3)cc2)ccn1 [Sorafenib, sorafenib, reference compound]")
8.64

###

- Tested on: K-562
- Assay Overview: MTT anti-proliferative assay, K-562
- Format: cell-based, human
- Protocol Conditions: Homo sapiens, K562; K-562, 0.195 umol
Observable: viability at 0.195 µmol (%)

>>> endpoint_result("O=C(Cn1cnc2cc(Cl)ccc2c1=O)Nc1ccc(F)c(Cl)c1 [8e]")
52.8
>>> endpoint_result("O=C(Cn1cnc2cc([N+](=O)[O-])ccc2c1=O)Nc1ccccc1Cl [9b]")
47.5
>>> endpoint_result("O=C(Cn1cnc2cc([N+](=O)[O-])ccc2c1=O)Nc1ccccc1 [9a]")
66.6

###

- Tested on: MCF-7
- Assay Overview: MTT anti-proliferative assay, MCF-7
- Type: cell-based, human
- Protocol Conditions: Homo sapiens, MCF7; MCF-7, 0.195 umol; read-out: Toxicity %
Observable: cytotoxicity at 0.195 µmol (%)

>>> endpoint_result("O=C(Cn1cnc2cc([N+](=O)[O-])ccc2c1=O)Nc1ccccc1Cl [9b]")
47.9
>>> endpoint_result("O=C(Cn1cnc2cc([N+](=O)[O-])ccc2c1=O)Nc1ccc(F)c(Cl)c1 [9e]")
45.2
>>> endpoint_result("O=C(Cn1cnc2cc(Cl)ccc2c1=O)Nc1ccc(F)c(Cl)c1 [8e]")
18.5
>>> endpoint_result("O=C(Cn1cnc2cc(Cl)ccc2c1=O)Nc1ccccc1 [8a]")
6.51
>>> endpoint_result("O=C(Cn1cnc2cc([N+](=O)[O-])ccc2c1=O)Nc1ccc(Cl)cc1 [9c]")
8.66
>>> endpoint_result("O=C(Cn1cnc2cc(Cl)ccc2c1=O)Nc1ccccc1Cl [8b]")
52.2
>>> endpoint_result("O=C(Cn1cnc2cc([N+](=O)[O-])ccc2c1=O)Nc1ccccc1 [9a]")
43.4
>>> endpoint_result("O=C(Cn1cnc2cc(Cl)ccc2c1=O)Nc1ccc(Cl)cc1 [8c]")
53.9

###

The following molecules are shown together with reported cytotoxicity at 6.25 µg/mL values.
- Tested on: HepG-2
- Assay Overview: MTT anti-proliferative assay, HepG-2
- Type: cell-based, human
- Protocol Conditions: Homo sapiens, HepG2; HepG-2, 6.25 ug/ml; read-out: Toxicity %
Observable: cytotoxicity at 6.25 µg/mL (%)

>>> endpoint_result("O=C(Cn1cnc2cc(Cl)ccc2c1=O)Nc1ccc(F)c(Cl)c1 [8e]")
88.1
>>> endpoint_result("O=C(Cn1cnc2cc(Cl)ccc2c1=O)Nc1ccc(Cl)cc1 [8c]")
89
>>> endpoint_result("O=C(Cn1cnc2cc([N+](=O)[O-])ccc2c1=O)Nc1ccc(F)c(Cl)c1 [9e]")
83.7

###

- Measured On: VEGFR-2 (Homo sapiens)
- Sequence (P35968 20-1356): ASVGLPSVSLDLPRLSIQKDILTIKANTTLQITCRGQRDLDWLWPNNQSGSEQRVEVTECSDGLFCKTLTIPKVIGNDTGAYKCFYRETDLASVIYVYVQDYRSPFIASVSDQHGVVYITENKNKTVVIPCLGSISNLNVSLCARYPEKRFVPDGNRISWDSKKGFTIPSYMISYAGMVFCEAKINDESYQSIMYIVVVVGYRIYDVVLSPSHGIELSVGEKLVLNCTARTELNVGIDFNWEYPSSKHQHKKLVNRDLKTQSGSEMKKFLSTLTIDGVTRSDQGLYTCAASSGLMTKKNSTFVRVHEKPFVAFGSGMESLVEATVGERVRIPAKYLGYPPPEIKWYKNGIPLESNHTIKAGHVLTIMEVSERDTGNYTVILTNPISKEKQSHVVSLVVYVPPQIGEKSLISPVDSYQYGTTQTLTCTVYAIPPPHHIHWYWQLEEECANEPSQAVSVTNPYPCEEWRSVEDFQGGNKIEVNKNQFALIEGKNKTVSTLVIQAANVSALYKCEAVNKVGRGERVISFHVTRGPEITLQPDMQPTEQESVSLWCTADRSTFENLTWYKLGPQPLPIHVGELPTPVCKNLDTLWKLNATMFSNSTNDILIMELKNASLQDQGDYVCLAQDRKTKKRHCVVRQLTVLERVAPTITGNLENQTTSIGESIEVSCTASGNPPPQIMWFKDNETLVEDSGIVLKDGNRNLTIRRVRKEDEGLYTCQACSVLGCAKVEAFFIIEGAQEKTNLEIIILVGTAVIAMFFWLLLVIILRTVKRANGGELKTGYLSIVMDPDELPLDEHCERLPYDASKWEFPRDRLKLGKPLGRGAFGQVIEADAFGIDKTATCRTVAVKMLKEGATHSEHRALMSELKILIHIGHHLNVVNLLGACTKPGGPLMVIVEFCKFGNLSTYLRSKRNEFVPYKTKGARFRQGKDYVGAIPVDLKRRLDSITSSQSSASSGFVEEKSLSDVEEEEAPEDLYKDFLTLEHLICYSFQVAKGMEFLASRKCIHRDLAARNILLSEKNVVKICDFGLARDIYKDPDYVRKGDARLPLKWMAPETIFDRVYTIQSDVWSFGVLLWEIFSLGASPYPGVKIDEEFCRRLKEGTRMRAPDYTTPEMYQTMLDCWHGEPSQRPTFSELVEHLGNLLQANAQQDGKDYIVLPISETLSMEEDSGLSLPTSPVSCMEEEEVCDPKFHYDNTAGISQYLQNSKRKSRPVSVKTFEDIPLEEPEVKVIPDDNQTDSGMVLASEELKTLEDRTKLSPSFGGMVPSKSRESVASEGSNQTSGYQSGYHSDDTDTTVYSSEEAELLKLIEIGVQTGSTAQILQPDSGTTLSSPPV
- Assay Overview: In vitro VEGFR-2 inhibitory assay (ELISA kit)
- Protocol Conditions: VEGFR-2 kinase, K-562
The following compounds are shown together with reported Inhibition % values.
Observable: Inhibition % (%)

>>> endpoint_result("O=C(Cn1cnc2cc([N+](=O)[O-])ccc2c1=O)Nc1ccccc1")
64.017
>>> endpoint_result("O=C(Cn1cnc2cc([N+](=O)[O-])ccc2c1=O)Nc1ccccc1Cl")
43.052
>>> endpoint_result("O=C(Cn1cnc2cc(Cl)ccc2c1=O)Nc1ccccc1")
62.505
>>> endpoint_result("O=C(Cn1cnc2cc(Cl)ccc2c1=O)Nc1ccccc1Cl")
78.668

###

- Measured On: EGFR (Homo sapiens)
- Sequence (P00533 25-1210): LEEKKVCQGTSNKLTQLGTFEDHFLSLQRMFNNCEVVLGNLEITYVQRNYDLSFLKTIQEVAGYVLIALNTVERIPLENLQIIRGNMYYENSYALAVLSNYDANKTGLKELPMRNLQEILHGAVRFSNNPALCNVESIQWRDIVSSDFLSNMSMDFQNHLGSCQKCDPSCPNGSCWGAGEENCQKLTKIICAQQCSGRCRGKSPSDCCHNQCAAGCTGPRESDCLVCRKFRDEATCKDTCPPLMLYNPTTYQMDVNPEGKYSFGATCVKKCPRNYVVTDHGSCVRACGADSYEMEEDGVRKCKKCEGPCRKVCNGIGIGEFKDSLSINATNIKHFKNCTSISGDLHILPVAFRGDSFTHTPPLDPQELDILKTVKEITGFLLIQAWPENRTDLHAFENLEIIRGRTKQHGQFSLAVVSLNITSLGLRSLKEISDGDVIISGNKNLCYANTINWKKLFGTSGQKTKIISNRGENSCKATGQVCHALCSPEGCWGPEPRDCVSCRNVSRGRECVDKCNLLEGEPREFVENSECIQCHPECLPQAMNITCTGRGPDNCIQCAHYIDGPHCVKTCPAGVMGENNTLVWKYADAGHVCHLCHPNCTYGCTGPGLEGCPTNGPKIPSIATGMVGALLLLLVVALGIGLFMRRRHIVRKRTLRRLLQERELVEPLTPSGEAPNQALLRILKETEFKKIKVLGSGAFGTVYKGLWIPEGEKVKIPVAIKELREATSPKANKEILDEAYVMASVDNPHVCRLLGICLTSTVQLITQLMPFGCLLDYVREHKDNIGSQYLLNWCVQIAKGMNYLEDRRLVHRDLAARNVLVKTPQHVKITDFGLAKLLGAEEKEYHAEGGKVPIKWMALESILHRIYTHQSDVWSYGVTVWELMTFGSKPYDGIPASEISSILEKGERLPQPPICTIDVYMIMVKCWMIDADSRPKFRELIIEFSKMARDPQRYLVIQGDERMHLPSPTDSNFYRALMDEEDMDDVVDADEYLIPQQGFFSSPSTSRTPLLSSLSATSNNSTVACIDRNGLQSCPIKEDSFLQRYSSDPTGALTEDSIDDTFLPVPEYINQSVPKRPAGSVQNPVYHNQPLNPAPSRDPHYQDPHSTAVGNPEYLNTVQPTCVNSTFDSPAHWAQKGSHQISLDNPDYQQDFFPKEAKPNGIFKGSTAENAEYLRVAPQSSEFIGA
- Assay Overview: EGFR kinase inhibition assay (ELISA kit)
- Protocol Conditions: K-562
Observable: Activity % (%)

>>> endpoint_result("O=C(Cn1cnc2cc([N+](=O)[O-])ccc2c1=O)Nc1ccccc1Cl")
47.456
>>> endpoint_result("O=C(Cn1cnc2cc(Cl)ccc2c1=O)Nc1ccccc1Cl")
17.305
>>> endpoint_result("O=C(Cn1cnc2cc([N+](=O)[O-])ccc2c1=O)Nc1ccccc1")
21.954
>>> endpoint_result("O=C(Cn1cnc2cc(Cl)ccc2c1=O)Nc1ccccc1")
33.902
